- Target system: serum sample IHUS#B09032311A3 (pre-existing antibodies against ISV)
- Assay summary: ECL drug displacement assay, variant as competitor against labelled SEQ ID NO:1
Label met when % reduction is strictly below 20%; at or above that, label not met.

[in] Does Example 1C: (A14P, R39Q, K83R, T91Y, Q108L)-3A (VHH) VHH: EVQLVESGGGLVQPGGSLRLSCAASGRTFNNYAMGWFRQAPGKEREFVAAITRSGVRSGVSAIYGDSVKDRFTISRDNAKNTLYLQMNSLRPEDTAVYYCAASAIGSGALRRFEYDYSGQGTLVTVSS have % reduction strictly under 20%?
[out] met

[in] Strictly below 20% in % reduction? Example 1C: (K83R) (VHH) VHH: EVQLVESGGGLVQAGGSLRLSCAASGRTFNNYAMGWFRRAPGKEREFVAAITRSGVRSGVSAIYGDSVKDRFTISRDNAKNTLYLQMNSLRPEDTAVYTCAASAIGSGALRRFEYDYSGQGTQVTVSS
[out] not met

[in] For Example 1C: (A14P) (VHH) VHH: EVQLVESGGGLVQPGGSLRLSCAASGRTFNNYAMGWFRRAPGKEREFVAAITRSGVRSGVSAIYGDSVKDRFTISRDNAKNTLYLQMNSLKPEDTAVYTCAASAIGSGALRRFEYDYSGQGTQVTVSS , is the recorded % reduction below the cut-off of 20%?
[out] not met

[in] Find out if reported % reduction for Example 1C: (A14P, K83R, Q108L) (VHH) VHH: EVQLVESGGGLVQPGGSLRLSCAASGRTFNNYAMGWFRRAPGKEREFVAAITRSGVRSGVSAIYGDSVKDRFTISRDNAKNTLYLQMNSLRPEDTAVYTCAASAIGSGALRRFEYDYSGQGTLVTVSS is less than 20%
[out] not met
